Source of measurements: patent US4439434A

tested on: Lactobacillus bifidus; test: Effect on the intestinal bacterial colonies: Lactobacillus bifidus in feces; assay type: in vivo; settings: mice, oral 500 mg/kg/day for two consecutive days, feces one day after administration
Logarithmic value of the number of bacterial cells per one g of feces, L. bifidus overview
Would you mind answering with just the numeric figure?

Prompt: So what does the record say about Logarithmic value of the number of bacterial cells per one g of feces, L. bifidus for CC(=O)OCC1=C(C(=O)Nc2ccc(CC(=O)O)cc2)N2C(=O)C(NC(=O)Cc3cccs3)C2SC1 (stereo not shown) ?
Completion: 8.4

Prompt: Entry CCOC(=O)Cc1ccc(NC(=O)C2=C(COC(C)=O)CSC3C(NC(=O)Cc4cccs4)C(=O)N23)cc1 (stereo not shown) has what Logarithmic value of the number of bacterial cells per one g of feces, L. bifidus?
Completion: 8.3

Prompt: I am curious: what Logarithmic value of the number of bacterial cells per one g of feces, L. bifidus value has been reported for COC(=O)c1ccc(NC(=O)C2=C(COC(C)=O)CSC3C(NC(=O)Cc4cccs4)C(=O)N23)cc1 (stereo not shown) ?
Completion: 8.6

Prompt: Report Logarithmic value of the number of bacterial cells per one g of feces, L. bifidus for COC(=O)Cc1ccc(NC(=O)C2=C(COC(C)=O)CSC3C(NC(=O)Cc4cccs4)C(=O)N23)cc1 (stereo not shown) please.
Completion: 8.3

Prompt: Which Logarithmic value of the number of bacterial cells per one g of feces, L. bifidus is reported for this compound? CCOC(=O)c1ccc(NC(=O)C2=C(COC(C)=O)CSC3C(NC(=O)Cc4cccs4)C(=O)N23)cc1 (stereo not shown)
Completion: 8.3

Prompt: // lookup Logarithmic value of the number of bacterial cells per one g of feces, L. bifidus for CC(=O)OCC1=C(C(=O)Nc2ccc(C(=O)NCC(=O)O)cc2)N2C(=O)C(NC(=O)Cc3cccs3)C2SC1 (stereo not shown)
Completion: 8.5

Prompt: For the compound CCCCOC(=O)c1ccc(NC(=O)C2=C(COC(C)=O)CSC3C(NC(=O)Cc4cccs4)C(=O)N23)cc1 (stereo not shown) , what Logarithmic value of the number of bacterial cells per one g of feces, L. bifidus is on record?
Completion: 8.5
